Target: rat NaPi-2b (Rattus norvegicus, UniProt Q9JJ09)
Construct: expressed in transfected cells; host or cells: Xenopus oocytes injected with cRNA
Sequence (Q9JJ09 whole entry): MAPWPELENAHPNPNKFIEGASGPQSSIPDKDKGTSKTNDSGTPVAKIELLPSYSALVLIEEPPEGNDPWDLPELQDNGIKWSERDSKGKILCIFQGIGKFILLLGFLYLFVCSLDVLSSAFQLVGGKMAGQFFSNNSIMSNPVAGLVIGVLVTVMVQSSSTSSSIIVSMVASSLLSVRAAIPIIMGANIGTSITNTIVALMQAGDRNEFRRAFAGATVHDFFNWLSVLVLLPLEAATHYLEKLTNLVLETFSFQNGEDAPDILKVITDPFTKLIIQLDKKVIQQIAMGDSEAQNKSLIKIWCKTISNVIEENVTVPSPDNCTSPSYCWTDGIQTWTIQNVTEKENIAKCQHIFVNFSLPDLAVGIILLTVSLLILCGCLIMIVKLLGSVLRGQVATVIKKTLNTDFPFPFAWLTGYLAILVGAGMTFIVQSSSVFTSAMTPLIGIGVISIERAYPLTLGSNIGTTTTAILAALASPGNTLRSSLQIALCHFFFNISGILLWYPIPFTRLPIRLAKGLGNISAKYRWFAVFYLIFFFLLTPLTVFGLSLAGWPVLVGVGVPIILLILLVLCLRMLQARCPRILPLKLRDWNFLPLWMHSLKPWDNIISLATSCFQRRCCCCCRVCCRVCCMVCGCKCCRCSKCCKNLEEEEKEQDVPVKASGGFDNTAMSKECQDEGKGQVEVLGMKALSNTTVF
Assay: Sodium-dependent phosphate uptake of Xenopus oocytes which expressed NaPi-2b (32P)
Type: cell-based
Details: phosphate uptake, oocytes expressing rat NaPi-2b; 300 μM, determined from inhibition curve
Measured inhibition at 300 µM by item
Value expressed in %; do not type the unit.

Solved cases below.
{"Compound": "Cc1ccc(CNNC(=O)c2ccccc2NC(=O)c2ccncc2)cc1", "System under test": "rat NaPi-2b (Rattus norvegicus, UniProt Q9JJ09)", "Unit tag": "%", "inhibition at 300 µM": 88.8}
{"Compound": "Cc1csc(C(=O)N/N=C/c2cccc(F)c2)c1NC(=O)c1cccc(CSCCCO)c1", "System under test": "rat NaPi-2b (Rattus norvegicus, UniProt Q9JJ09)", "Unit tag": "%", "inhibition at 300 µM": 40.9}
{"Compound": "O=C(Nc1ccc(Cl)cc1C(=O)N/N=C/c1ccc(Cl)c(C(F)(F)F)c1)c1cccc(CSCCS(=O)(=O)O)c1", "System under test": "rat NaPi-2b (Rattus norvegicus, UniProt Q9JJ09)", "Unit tag": "%", "inhibition at 300 µM": 59.4}
{"Compound": "CC(O)CN(Cc1cccc(C(=O)Nc2ccsc2C(=O)N/N=C/c2ccc(Cl)c(C(F)(F)F)c2)c1)CC(C)O (stereo not shown)", "System under test": "rat NaPi-2b (Rattus norvegicus, UniProt Q9JJ09)", "Unit tag": "%", "inhibition at 300 µM": 39.7}
{"Compound": "COCCOc1cc(NC(=O)c2cccc(CSCC(O)CO)c2)c(C(=O)N/N=C/c2ccc(C)cc2)cc1OCCOC (stereo not shown)", "System under test": "rat NaPi-2b (Rattus norvegicus, UniProt Q9JJ09)", "Unit tag": "%", "inhibition at 300 µM": 55.2}
{"Compound": "Cc1ccc(/C=N/NC(=O)c2cc(Cl)ccc2NC(=O)c2cccc(CN(C)CCCN(C)Cc3cccc(C(=O)Nc4ccc(Cl)cc4C(=O)N/N=C/c4ccc(C)cc4)c3)c2)cc1", "System under test": "rat NaPi-2b (Rattus norvegicus, UniProt Q9JJ09)", "Unit tag": "%", "inhibition at 300 µM": 49.2}

Q: Which inhibition at 300 µM value belongs to COc1ccc(C(=O)Nc2ccccc2C(=O)N/N=C/c2ccc(Br)cc2)cc1OC ?
Ans: 37.9
